The origin of these recorded values is patent US4405642A.

Assay System: β-adrenergic receptors (guinea pig right atria) (Cavia porcellus)
Construct: Atria were allowed to beat spontaneously under a loading tension; from tissue; host or cells: guinea pig right atria (isolated, spontaneously beating)
Sequence (H0W3H1 1-470): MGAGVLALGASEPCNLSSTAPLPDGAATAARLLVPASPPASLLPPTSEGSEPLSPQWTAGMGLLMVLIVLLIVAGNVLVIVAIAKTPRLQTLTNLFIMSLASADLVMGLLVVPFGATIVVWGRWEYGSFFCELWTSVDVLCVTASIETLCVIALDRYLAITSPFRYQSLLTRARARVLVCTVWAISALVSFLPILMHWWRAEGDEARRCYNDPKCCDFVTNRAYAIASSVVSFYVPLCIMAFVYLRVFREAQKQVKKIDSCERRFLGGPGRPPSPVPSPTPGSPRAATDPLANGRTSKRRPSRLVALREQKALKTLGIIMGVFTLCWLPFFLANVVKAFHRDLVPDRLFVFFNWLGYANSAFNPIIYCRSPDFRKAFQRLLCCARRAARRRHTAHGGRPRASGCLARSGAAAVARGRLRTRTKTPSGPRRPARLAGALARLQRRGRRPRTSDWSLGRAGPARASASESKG
Experiment Summary: β-blocking activity in vitro, guinea pig right atria (rate response to isoproterenol)
Assay type: cell-based
Condition Description: vs isoproterenol, guinea pig right atria, 60 minute incubation, 37° C.; read-out: pA2 Atria (converted)
Structures can show the parent of a compound that is named as a salt.
Outcome Measure: Kb (nM)

- Compound: "COc1ccc(CCNCC(O)C(=O)Oc2ccccc2)cc1OC (centres unmarked) [Example I, Hydrochloride]"
  Kb [nM]: 1260
- Compound: "CCCNCC(O)COC(=O)c1ccc(N)cc1 (centres unmarked)"
  Kb [nM]: 1260
- Compound: "CC(=O)Nc1ccc(C(=O)OCC(O)CNC(C)C)cc1 (centres unmarked) [Example LXII, hydrochloride]"
  Kb [nM]: 1580
- Compound: "COc1ccc(CCNCC(O)COC(=O)c2cccc(F)c2)cc1OC (centres unmarked)"
  Kb [nM]: 398
- Compound: "CC(C)NCC(O)COC(=O)c1cccc(N)c1 (centres unmarked)"
  Kb [nM]: 398

I = CC(C)NCC(O)COC(=O)c1cccc([N+](=O)[O-])c1 (centres unmarked)
II = COc1ccc(CCNCC(O)COC(=O)c2ccccc2F)cc1OC (centres unmarked)
Exam item: Please state the entry with greater Kb among I and II . Answer format: the label of the selected item.
Marked response: II
